Reported Uterine Weight (% inc. OVX) values are given for each entry in this list.
Test system: uterus
protocol text: Uterine wet weight, post-menopausal (OVX) rat model, four day dosing regimen
Format: in vivo, female Sprague Dawley rats
stated conditions: Dose 0.1 mg/kg, oral, daily for 4 days, OVX rats; * = significantly different than OVX control
# number only, unit % dropped from output

Asked: Report Uterine Weight (% inc. OVX) for COc1ccc(-c2sc3cc(OC)ccc3c2C(=O)c2ccc(OCC(=O)N3CCCCC3)cc2)cc1 please.
Given back: -0.5

Asked: Next: O=C(NCCOc1ccc(C(=O)c2c(-c3ccc(O)cc3)sc3cc(O)ccc23)cc1)NC1CCCCC1
Given back: -29.9

Asked: And then O=C(c1ccc(OCCN2CCCCC2=O)cc1)c1c(-c2ccc(O)cc2)sc2cc(O)ccc12 , what is it?
Given back: 13.3

Asked: Now the compound O=C(c1ccc(OCC(=O)N2CCCCC2)cc1)c1c(-c2ccc(O)cc2)sc2cc(O)ccc12
Given back: -10.0

* * *

# inhibition in vivo at 0.1 mg/kg per entry
Test system: serum cholesterol
protocol text: Serum cholesterol analysis, OVX rat, four day dosing regimen
Type: in vivo, female Sprague Dawley rats
stated conditions: Rattus norvegicus, 96 h; Dose 0.1 mg/kg, oral, daily for 4 days, OVX rats; * = significantly different than OVX control; read-out: Serum Cholesterol (% dec. OVX)
The figure you give is taken to be in %; do not add the unit.

compound: C#C[C@]1(O)CC[C@H]2[C@@H]3CCc4cc(O)ccc4[C@H]3CC[C@@]21C [ethynyl estradiol, 17α-Ethynyl estradiol, reference compound]
experimental system: serum cholesterol
inhibition in vivo at 0.1 mg/kg [%]: 89.6
--
compound: N#CCOc1ccc(C(=O)c2c(-c3ccc(O)cc3)sc3cc(O)ccc23)cc1 [Compound 14]
experimental system: serum cholesterol
inhibition in vivo at 0.1 mg/kg [%]: 3.3
--
compound: CC(=O)N(CCOc1ccc(C(=O)c2c(-c3ccc(O)cc3)sc3cc(O)ccc23)cc1)C1CCCCC1 [Compound 19]
experimental system: serum cholesterol
inhibition in vivo at 0.1 mg/kg [%]: 14.5

Asked: Return reported inhibition in vivo at 0.1 mg/kg; argument: CC(C)(C)C(=O)N1CCC(Oc2ccc(C(=O)c3c(-c4ccc(O)cc4)sc4cc(O)ccc34)cc2)CC1 [Compound 23]
Given back: -17.4

Asked: Another compound: O=C(c1ccc(OCCN2CCCCC2=O)cc1)c1c(-c2ccc(O)cc2)sc2cc(O)ccc12 [Compound 3]
Given back: 38.1

Asked: Query CCCCN(C)C(=O)COc1ccc(C(=O)c2c(-c3ccc(O)cc3)sc3cc(O)ccc23)cc1 [Compound 10] next
Given back: -40

Asked: Let us now turn to O=C(c1ccc(OCCN2C(=O)CCC2=O)cc1)c1c(-c2ccc(O)cc2)sc2cc(O)ccc12 [Compound 13]
Given back: 37.6

Asked: # repeat for O=C(NCCOc1ccc(C(=O)c2c(-c3ccc(O)cc3)sc3cc(O)ccc23)cc1)NC1CCCCC1 [Compound 20]
Given back: -27.2

* * *

Test system: eosinophil peroxidase activity
protocol text: Uterine eosinophil peroxidase (EPO) assay, OVX rat, four day dosing regimen
stated conditions: Dose 1 mg/kg, oral, daily for 4 days, OVX rats; * = significantly different than OVX control
# Uterine EPO (Vmax) values compiled below

Observe how each entry below is paired with its result.
molecule: O=C(NCCOc1ccc(C(=O)c2c(-c3ccc(O)cc3)sc3cc(O)ccc23)cc1)c1ccccc1
Uterine EPO (Vmax): 3.6
--
molecule: CC(C#N)Oc1ccc(C(=O)c2c(-c3ccc(O)cc3)sc3cc(O)ccc23)cc1 (stereo not shown)
Uterine EPO (Vmax): 3.9
--
molecule: O=C(c1ccc(OCC(=O)N2CCCCC2)cc1)c1c(-c2ccc(O)cc2)sc2cc(O)ccc12
Uterine EPO (Vmax): 3.6

// next item, Uterine EPO (Vmax) requested
Asked: GET /values?readout=Uterine EPO (Vmax)&system=eosinophil peroxidase activity&item= COc1ccc(-c2sc3cc(OC)ccc3c2C(=O)c2ccc(OCC(=O)N3CCCCC3)cc2)cc1
Given back: 3.7

* * *

System: uterus
protocol text: Uterine wet weight, post-menopausal (OVX) rat model, four day dosing regimen
Assay type: in vivo, female Sprague Dawley rats
stated conditions: Dose 10 mg/kg, oral, daily for 4 days, OVX rats; * = significantly different than OVX control
outcome measure: Uterine Weight (% inc. OVX)

chemical smiles: O=C(c1ccc(OCC(=O)N2CCCCC2)cc1)c1c(-c2ccc(O)cc2)sc2cc(O)ccc12
Uterine Weight (% inc. OVX): 51.7* %

chemical smiles: O=C(c1ccc(OCCN2CCCCC2=O)cc1)c1c(-c2ccc(O)cc2)sc2cc(O)ccc12
Uterine Weight (% inc. OVX): 57.6* %

chemical smiles: CCCCN(C)C(=O)COc1ccc(C(=O)c2c(-c3ccc(O)cc3)sc3cc(O)ccc23)cc1
Uterine Weight (% inc. OVX): 38.0* %

chemical smiles: CN(C)C(=O)COc1ccc(C(=O)c2c(-c3ccc(O)cc3)sc3cc(O)ccc23)cc1
Uterine Weight (% inc. OVX): 60.7* %

Let us move to another entry and its Uterine Weight (% inc. OVX).
Asked: Need Uterine Weight (% inc. OVX) of O=C(c1ccc(OCCN2CCCC2=O)cc1)c1c(-c2ccc(O)cc2)sc2cc(O)ccc12 , thanks.
Given back: 40.3* %
